Dmax overview
# measured target: MK2 (Homo sapiens, UniProt P49137)
# Sequence (P49137 whole entry): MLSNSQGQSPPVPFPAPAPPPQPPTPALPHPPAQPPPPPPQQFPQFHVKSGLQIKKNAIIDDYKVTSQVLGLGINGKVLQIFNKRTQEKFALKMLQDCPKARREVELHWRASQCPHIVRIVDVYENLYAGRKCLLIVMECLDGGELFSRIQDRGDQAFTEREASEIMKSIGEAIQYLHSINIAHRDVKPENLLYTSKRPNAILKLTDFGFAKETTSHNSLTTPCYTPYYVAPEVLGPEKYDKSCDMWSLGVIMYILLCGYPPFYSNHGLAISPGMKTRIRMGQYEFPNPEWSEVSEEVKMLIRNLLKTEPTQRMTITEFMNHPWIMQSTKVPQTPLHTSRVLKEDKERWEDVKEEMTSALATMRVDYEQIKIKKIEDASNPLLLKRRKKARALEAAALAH
# assay comment: MK2 degradation in human SW1353 cells (MSD, 24 h)
# Format: cell-based
# Design: endogenous in cells; host or cells: SW-1353 (ATCC HTB-94)
# test conditions: read-out: MK2 MSD SW 1353 24 h Dmax %

Worked cases, Dmax given:
compound: C[C@@H]1CNc2c(sc3ccc4nc(-c5ccc(N6CCN(CCCc7cccc8c7n(C)c(=O)n8C7CCC(=O)NC7=O)CC6)cc5)ccc4c23)C(=O)N1 (stereo partly drawn)
result: > 75%
//
compound: C[C@@H]1CNc2c(sc3ccc4nc(N5CCC6(CC5)CN(C5CCN(c7cccc8c7n(C)c(=O)n8C7CCC(=O)NC7=O)CC5)C6)ccc4c23)C(=O)N1 (stereo partly drawn)
result: > 75%

Below: the item to evaluate.
stdin: Which Dmax value belongs to C[C@@H]1CNc2c(sc3ccc4nc(N5CCN(CC6CCN(c7ccc(-c8ccc9c(c8)n(C)c(=O)n9C8CCC(=O)NC8=O)cc7)CC6)CC5)ccc4c23)C(=O)N1 (stereo partly drawn) ?
stdout: > 75%
